Target: T1, Porcine liver acylpeptide hydrolase (porcine, UniProt P19205 1-732)
T1 construct: acylpeptide hydrolase (acylaminoacyl peptidase, oxidised protein hydrolase) from porcine liver; also called porcine APEH; APEH; source: bought: Takara (porcine liver APEH)
T1 sequence (looked up): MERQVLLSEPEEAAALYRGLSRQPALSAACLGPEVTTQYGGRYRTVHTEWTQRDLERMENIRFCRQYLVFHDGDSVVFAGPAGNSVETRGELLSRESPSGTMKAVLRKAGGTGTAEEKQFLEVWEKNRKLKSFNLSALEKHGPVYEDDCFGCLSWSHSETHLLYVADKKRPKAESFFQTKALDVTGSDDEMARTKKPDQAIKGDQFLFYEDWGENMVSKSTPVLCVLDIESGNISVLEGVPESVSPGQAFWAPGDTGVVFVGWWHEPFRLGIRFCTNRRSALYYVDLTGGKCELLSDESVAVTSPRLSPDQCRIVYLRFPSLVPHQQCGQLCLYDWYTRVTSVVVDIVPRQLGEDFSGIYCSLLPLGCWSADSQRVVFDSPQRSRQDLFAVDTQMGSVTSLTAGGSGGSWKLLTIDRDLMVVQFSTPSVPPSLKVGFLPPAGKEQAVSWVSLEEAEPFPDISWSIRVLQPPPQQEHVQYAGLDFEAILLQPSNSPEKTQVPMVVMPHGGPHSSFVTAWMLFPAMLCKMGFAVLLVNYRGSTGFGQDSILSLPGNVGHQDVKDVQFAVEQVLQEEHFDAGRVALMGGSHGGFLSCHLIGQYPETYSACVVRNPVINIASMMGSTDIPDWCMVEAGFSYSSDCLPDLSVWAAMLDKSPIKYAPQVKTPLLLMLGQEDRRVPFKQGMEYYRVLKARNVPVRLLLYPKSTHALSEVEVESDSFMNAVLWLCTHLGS
Experiment: enzyme inhibition kinetics (Lineweaver-Burk); porcine APEH (0.5 nM in the legend; 3-5 nM in the methods) pre-incubated with 100 or 150 µM SsCEI 4 for 30 min at 37°C, 50 mM Tris-HCl pH 7.5, substrate acetyl-Ala-pNA; competitive inhibition
Details: both partners purified
Assay Endpoint: Ki (µM)
// return numeric value only (unit: µM, not printed)

input: Annotate the binder H-TILAEIKNINAD-NH2 (As SsCEI 2 with Ala at P1; also called S4; source: synthetic peptide (solid-phase Fmoc/tBu synthesis, purified by reverse-phase HPLC)) [SsCEI 4] with its measured Ki.
output: 4
